Reference source: PubChem BioAssay (NCI)

- Tested on: PC-3 prostate
- method.summary: NCI-60 one-dose screen, 48 h (100 = growth as untreated, 0 = no growth, -100 = all killed)
- measurement.conditions: 10 µM unless noted
- Experimental: Growth inhibition of the PC-3 human tumor cell line is measured as a screen for anti-cancer activity. Cells are grown in 96 well plates and exposed to the test compound for 48 hours. Compounds are tested at a single concentration, which is 10^-5 M for most compounds. The reported endpoint is percent growth (GI% or GIPRCNT), where numbers from 0 - 100% represent growth inhibition, and numbers from -100% - 0 represent cell death. For example, a value of 40 represents 60% growth inhibition. […]
This is part of a sample that, as a whole, favours compounds with a hit. Of some 83,000 tested, about 20% had one in any assay.
readout.label: growth (%)
Quick reminder: number only, in %, skip the unit.

Study these solved cases before continuing.
[
  {
    "compound": "N#Cc1c(NC(=O)c2cccs2)[n+]([O-])c2cc(C(F)(F)F)ccc2[n+]1[O-]",
    "readout.label": "growth",
    "readout.unit": "%",
    "measurement": 65.1
  },
  {
    "compound": "C/C(=N\\NC(=O)c1ccncc1)c1ccc(N)cc1",
    "readout.label": "growth",
    "readout.unit": "%",
    "measurement": 85.8
  },
  {
    "compound": "C=C1C(=O)O[C@H]2[C@H]1CC/C(COC(=O)/C=C/c1cccnc1)=C\\CC[C@@]1(C)O[C@@H]21",
    "readout.label": "growth",
    "readout.unit": "%",
    "measurement": 57.5
  },
  {
    "compound": "CC[C@]12C=CCN3CC[C@@]4(c5cc(NC(=O)CCC(=O)O[C@H]6CC[C@H]7[C@@H]8CC[C@H]9CC(=O)CC[C@]9(C)[C@H]8CC[C@]67C)c(OC)cc5N(C)[C@H]4[C@@](O)(C(=O)OC)[C@@H]1OC(C)=O)[C@@H]32",
    "readout.label": "growth",
    "readout.unit": "%",
    "measurement": 47.7
  }
]

Q: What does the record list as growth for FC(F)(F)c1ccc2c(Nc3cccc(C4CC(c5ccccc5)=NN4c4ccc(Cl)cc4)c3)ccnc2c1 (stereo not drawn) ?
Result: 34

Q: What value of measured growth is listed for CC(=O)c1c(OCC#N)ccc2c(C)cc(=O)oc12 ?
Result: 87.2

Q: # query: growth of entry CC(=O)O[C@@H]1C[C@]2(C)[C@H]3[C@H](O)C[C@@H]4C5=CC(C)(C)CC[C@]5(C)CC[C@@]4(C)[C@]3(C)CC[C@H]2C(C)(C)[C@H]1O
Result: 84.9

Q: Any idea what growth was measured for COc1cc(/C=C/CO)cc(OC)c1O[C@@H]1O[C@H](CO)[C@@H](O)[C@H](O)[C@H]1O ?
Result: 95.1
